Provenance of the data: ChEMBL document CHEMBL4483862

test system: Plasmodium berghei; assay: Luciferase/luciferin-expressing antifolate-resistant parasites were used to infect a culture of HepG2 cells that were pre-incubated with compounds. Infected hepatocytes emit light due to the luciferase reaction. Assay results are presented as the percent inhibition of light emission compared to control. […]; format: functional; settings: sporozoite, HEPG2TOX_HILL_SLOPE 0.165, HEPG2TOX_R_SQUARED 0.248, read-out: LUCIFERASE INFECTION ASSAY - IC50
pIC50: −log10 of the molar value.
Value kind: pIC50

Q: # query: pIC50 of entry CC(Sc1nc(=O)c2c3c(sc2[nH]1)CCCC3)C(=O)Nc1ccc2ccccc2c1 (stereo unspecified)
Ans: < 5.00

###

tested on: Plasmodium berghei; experiment: Luciferase/luciferin-expressing antifolate-resistant parasites were used to infect a culture of HepG2 cells that were pre-incubated with compounds. Infected hepatocytes emit light due to the luciferase reaction. Assay results are presented as the percent inhibition of light emission compared to control. […]; format: functional; settings: sporozoite, PBLUC_HILL_SLOPE 1.64, PBLUC_R_SQUARED 0.733, read-out: LUCIFERASE INFECTION ASSAY - IC50
Value kind: pIC50
Worth noting: pIC50 values are minus log10 of concentrations stated in mol/L.

Q: # query: pIC50 of entry `Cc1ccc(S(=O)(=O)Nc2ccc(Nc3nccn4c(-c5ccccc5Oc5ccccc5)cnc34)cc2)cc1`
Ans: 5.85

###

system: Plasmodium berghei; test: Luciferase/luciferin-expressing antifolate-resistant parasites were used to infect a culture of HepG2 cells that were pre-incubated with compounds. Infected hepatocytes emit light due to the luciferase reaction. Assay results are presented as the percent inhibition of light emission compared to control. […]; format: functional; conditions: sporozoite, PBLUC_HILL_SLOPE 15.5, PBLUC_R_SQUARED 0.533, read-out: LUCIFERASE INFECTION ASSAY - IC50
Value kind: IC50 (µM)
Give just the numeric value; µM need not be written.

Q: # query: IC50 of entry `CN(C)c1cccc(-c2cnc3cnc(-c4cccc(C(N)=O)c4)cn23)c1`
Ans: 8.74

###

test system: Plasmodium berghei; assay: Luciferase/luciferin-expressing antifolate-resistant parasites were used to infect a culture of HepG2 cells that were pre-incubated with compounds. Infected hepatocytes emit light due to the luciferase reaction. Assay results are presented as the percent inhibition of light emission compared to control. […]; assay type: functional; settings: sporozoite, HEPG2TOX_HILL_SLOPE 0.531, HEPG2TOX_R_SQUARED 0.801, PBLUC_HILL_SLOPE 0.677, PBLUC_R_SQUARED 0.347, read-out: LUCIFERASE INFECTION ASSAY - IC50
Value kind: IC50 (nM)
Give just the numeric value; nM need not be written.

Q: # query: IC50 of entry `FC(F)(F)c1nc(NCCNc2ccccn2)c2ccccc2n1`
Ans: 214

###

tested on: Plasmodium berghei; experiment: Luciferase/luciferin-expressing antifolate-resistant parasites were used to infect a culture of HepG2 cells that were pre-incubated with compounds. Infected hepatocytes emit light due to the luciferase reaction. Assay results are presented as the percent inhibition of light emission compared to control. […]; type: functional; conditions: sporozoite, HEPG2TOX_HILL_SLOPE 2.49, HEPG2TOX_R_SQUARED 0.917, PBLUC_HILL_SLOPE 3.98, PBLUC_R_SQUARED 0.716, read-out: LUCIFERASE INFECTION ASSAY - IC50
Value kind: pIC50
Worth noting: pIC50 values are minus log10 of concentrations stated in mol/L.

Q: # query: pIC50 of entry CO[C@H]1[C@@H](O)[C@@H](C)O[C@H](O[C@H]2CC[C@]3(C)C4CC[C@]5(C)[C@@H](C6=CC(=O)OC6)CC[C@]5(O)C4CC[C@]3(O)C2)[C@@H]1O (stereo partly specified)
Ans: 6.83

###

system: Plasmodium berghei; assay: Luciferase/luciferin-expressing antifolate-resistant parasites were used to infect a culture of HepG2 cells that were pre-incubated with compounds. Infected hepatocytes emit light due to the luciferase reaction. Assay results are presented as the percent inhibition of light emission compared to control. […]; type: functional; conditions: sporozoite, PBLUC_HILL_SLOPE 17.2, PBLUC_R_SQUARED 0.454, read-out: LUCIFERASE INFECTION ASSAY - IC50
Value kind: IC50 (nM)
Give just the numeric value; nM need not be written.

Q: # query: IC50 of entry `COc1ccc2nc(C)cc(NCc3cccc(C(F)(F)F)c3)c2c1`
Ans: 2850

###

test system: Plasmodium berghei; assay: Luciferase/luciferin-expressing antifolate-resistant parasites were used to infect a culture of HepG2 cells that were pre-incubated with compounds. Infected hepatocytes emit light due to the luciferase reaction. Assay results are presented as the percent inhibition of light emission compared to control. […]; format: functional; settings: sporozoite, PBLUC_HILL_SLOPE 4.47, PBLUC_R_SQUARED 0.471, read-out: LUCIFERASE INFECTION ASSAY - IC50
Value kind: pIC50
Worth noting: pIC50 values are minus log10 of concentrations stated in mol/L.

Q: # query: pIC50 of entry `COc1ccc(-c2cnc3ccc(N[C@H](CO)C(C)C)nn23)cn1`
Ans: 5.57

###

I'd appreciate it if you could supply IC90 values for the items below.
tested on: Plasmodium berghei; assay: Luciferase/luciferin-expressing antifolate-resistant parasites were used to infect a culture of HepG2 cells that were pre-incubated with compounds. Infected hepatocytes emit light due to the luciferase reaction. Assay results are presented as the percent inhibition of light emission compared to control. […]; assay type: functional; settings: sporozoite, read-out: LUCIFERASE INFECTION ASSAY - IC90

Q: # query: IC90 of entry `CCN(CC)S(=O)(=O)c1ccc(OC(C)C)c(NC(=O)c2cc(C3CC3)nc3c2cnn3C(C)C)c1`
Ans: > 10 µM

Q: # query: IC90 of entry `CCC(C)(C)NS(=O)(=O)c1ccc(-n2ncc(Cl)c(Cl)c2=O)cc1`
Ans: 1.45 µM

Q: # query: IC90 of entry Cc1nc(C(=O)N2CCC(C)(C(=O)NS(=O)(=O)C3CC3)C2)c(C)o1 (stereo unspecified)
Ans: > 9.28 µM

Q: # query: IC90 of entry `Cc1oc2c(c1C(=O)N1CCC(C)CC1)C(=O)c1ccccc1C2=O`
Ans: > 10 µM

Q: # query: IC90 of entry CC(OC(=O)/C=C/c1ccc2ccccc2n1)C(=O)NC1CCCc2ccccc21 (stereo unspecified)
Ans: > 10 µM

Q: # query: IC90 of entry `O=C(CN1CCN(C(=O)/C=C/c2ccccc2[N+](=O)[O-])CC1)Nc1ccc(Cl)c(C(F)(F)F)c1`
Ans: > 10 µM

Q: # query: IC90 of entry `COc1cc(-c2nc3ccc(NC(=O)COc4ccccc4)cn3n2)cc(OC)c1OC`
Ans: > 10 µM

Q: # query: IC90 of entry `Cc1nnc(S(=O)(=O)CC(=O)N2CCc3ccccc32)n1C`
Ans: > 10 µM

Q: # query: IC90 of entry O=C(c1cc2c(s1)CCC2)N1C=CN(c2ccc(C(F)(F)F)cn2)C1c1nccn1-c1ccc(C(F)(F)F)cn1 (stereo unspecified)
Ans: > 10 µM

Q: # query: IC90 of entry `O=C1/C(=N\O)c2ccccc2N1Cc1cc(C(F)(F)F)cc(C(F)(F)F)c1`
Ans: 2.62 µM

Q: # query: IC90 of entry `CC(=O)N1CCN(c2nc(CC(C)C)c3c(c2C#N)CCCC3)CC1`
Ans: > 9.69 µM

Q: # query: IC90 of entry COc1ccc(N2C(=N)C(c3nc4ccccc4s3)C(=O)C2c2ccccc2)cc1 (stereo unspecified)
Ans: 4.06 µM

Q: # query: IC90 of entry `CSc1ccc(-c2nccc3n[nH]c(C4CC4)c23)cc1`
Ans: > 10 µM

Q: # query: IC90 of entry CC1CCc2sc(C(=O)Nc3cccc4c3C(=O)NC4)cc2C1 (stereo unspecified)
Ans: 4.22 µM

Q: # query: IC90 of entry `Cc1nc(-c2ccc(CCNC(=O)c3ccc(S(C)(=O)=O)c([N+](=O)[O-])c3)cc2)cs1`
Ans: 5.46 µM

Q: # query: IC90 of entry COC(=O)C1=C(C)N(c2cccc(C(F)(F)F)c2)C(=S)NC1c1ccc(O)c(OC)c1 (stereo unspecified)
Ans: 1.57 µM

Q: # query: IC90 of entry `O=C(Nc1cccc(Cl)c1)C1=COC2=NC(=O)N(Cc3cccc(Cl)c3)CCN12`
Ans: > 10 µM

Q: # query: IC90 of entry CC(NC(=O)COC(=O)CSc1ccc(Br)c2cccc(Cl)c12)c1ccccc1 (stereo unspecified)
Ans: > 10 µM

Q: # query: IC90 of entry `O=C(O)c1ccc(CN2C(=O)CCC2=O)cc1`
Ans: > 10 µM

Q: # query: IC90 of entry `O=C(Nc1ccc(Cl)c(C(F)(F)F)c1)c1[nH]nc2ccccc12`
Ans: > 10 µM

Q: # query: IC90 of entry `Cc1nn(CC(=O)Nc2cc(C(F)(F)F)ccc2Oc2ccc(Br)cc2)c(=O)c(C#N)c1C`
Ans: > 10 µM

Q: # query: IC90 of entry `Cc1cc2[nH]c(C)cc(=O)n2n1`
Ans: > 20.2 µM

Q: # query: IC90 of entry `CS(=O)(=O)c1ccc(C(F)(F)F)cc1[N+](=O)[O-]`
Ans: > 12.3 µM

Q: # query: IC90 of entry `Cc1nn2c(=O)c(Cc3ccccc3Cl)c(C)[nH]c2c1-c1ccccc1`
Ans: 2.97 µM

Q: # query: IC90 of entry `COc1ccc(Cl)cc1N1C(=O)/C(=C\c2sccc2C)N=C1SCc1cc(=O)n2ccsc2n1`
Ans: > 10 µM

Q: # query: IC90 of entry CCOC(=O)N1CCC(NCC(O)COc2ccc(C(C)(C)C)cc2)CC1 (stereo unspecified)
Ans: > 10 µM

Q: # query: IC90 of entry `O=C(/C=C/c1ccc([N+](=O)[O-])cc1)NCC(=O)N1CCN(S(=O)(=O)c2ccc(Cl)cc2)CC1`
Ans: 0.04 µM

Q: # query: IC90 of entry `O=C(COC(=O)c1cc(-c2ccc(Cl)cc2)nc2ccccc12)Nc1cc(C(F)(F)F)ccc1-n1cncn1`
Ans: > 10 µM

Q: # query: IC90 of entry O=S(=O)(c1cc(C(F)(F)F)cc(C(F)(F)F)c1)N1CCc2c([nH]c3ccccc23)C1C(F)(F)F (stereo unspecified)
Ans: > 6.39 µM

Q: # query: IC90 of entry `Cn1nnnc1Sc1ncnc2sc3c(c12)CCCC3`
Ans: > 10 µM

Q: # query: IC90 of entry CC(C)(C)c1ccccc1NC(=O)Nc1nc(C(N)CCc2ccccc2)cs1 (stereo unspecified)
Ans: 8 µM

Q: # query: IC90 of entry `O=c1nc(Nc2ccc(Cl)cc2)[nH]nc1Cc1ccc(Cl)cc1`
Ans: 5.05 µM

Q: # query: IC90 of entry `Cc1noc(C)c1COc1ccc(C(=O)NNc2c(Cl)cc(Cl)cc2Cl)cc1`
Ans: > 10 µM

Q: # query: IC90 of entry `CCOC(=O)c1ccc(NC2CCCCC2)c(/N=C/c2cc(Cl)cc(Cl)c2O)c1`
Ans: 2.39 µM

Q: # query: IC90 of entry `COc1cc(-c2ccnc3n[nH]c(-c4ccc(N(C)C)cc4)c23)cc(OC)c1OC`
Ans: 3.63 µM

Q: # query: IC90 of entry Cc1ccc(C)c(-c2nn(C(C)C(=O)Nc3cc(C)on3)c(=O)c3ccccc23)c1 (stereo unspecified)
Ans: 3.83 µM

Q: # query: IC90 of entry `O=C(CSCc1cn(-c2ccccc2)nc1-c1ccccc1)NC1CCCC1`
Ans: > 10 µM

Q: # query: IC90 of entry `CCCn1c(-c2ccccc2)nc2c(c(=O)c3ccccc3n2C)c1=O`
Ans: 3.93 µM

Q: # query: IC90 of entry CCCn1c(NC(=O)C2CCCN2C(=O)C23CC4CC(CC(C4)C2)C3)nc2ccccc21 (stereo unspecified)
Ans: 9.69 µM

Q: # query: IC90 of entry `COc1cccc(-c2ccc3ncc(-c4ccc(NC(C)=O)cc4)n3n2)c1`
Ans: 3.39 µM

Q: # query: IC90 of entry `COc1cc(CNC(=O)c2scnc2C)ccc1OC1CCCC1`
Ans: > 10 µM
